The reported numbers originate from PubChem BioAssay AID1963964.

- Test system: 997726-040-R-J2-PDC tumor spheroids, viability
- method-description: Anticancer human tumor 997726-040-R-J2-PDC patient-derived squamous cell lung carcinoma cell line growth inhibition [PI3K]
- stated-conditions: second compound 0.01 µM; first compound 0.316 µM; active compounds read low; spheroids with HUVEC and MSC
Quick reference: viability, T/C of the listed items.
reported-metric: viability, T/C (%)

compound="CC(Cn1ccc(-c2ccc(C#N)c(Cl)c2)n1)NC(=O)c1cc(C(C)O)[nH]n1 (stereo not drawn) + CC(Nc1ccc2c(c1)OCCn1cc(N3C(=O)OCC3C(F)F)nc1-2)C(N)=O" result_unit=% observed_result=80
compound="CC(Cn1ccc(-c2ccc(C#N)c(Cl)c2)n1)NC(=O)c1cc(C(C)O)[nH]n1 (stereo not drawn) + COc1c(OCCCN2CCOCC2)ccc2c3n(c(=NC(=O)c4cnc(N)nc4)nc12)CCN3" result_unit=% observed_result=59.9
compound="C=CC(=O)N1CCN(c2nc(=O)n(-c3c(C)ccnc3C(C)C)c3nc(-c4c(O)cccc4F)c(F)cc23)C(C)C1 (stereo not drawn) + CC(Nc1ccc2c(c1)OCCn1cc(N3C(=O)OCC3C(F)F)nc1-2)C(N)=O" result_unit=% observed_result=88.5

----------
- Test system: 997726-040-R-J2-PDC tumor spheroids, viability
- method-description: Anticancer human tumor 997726-040-R-J2-PDC cell line growth inhibition [PI3K];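 further: spheroids exposed to compounds for seven days before readout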
- stated-conditions: second compound 1 µM; first compound 3.16 µM; active compounds read low; spheroids with HUVEC and MSC
Binary call on viability, T/C with cut-off 20%: strictly below means 1, and equality or higher means -1.

compound="Cn1nccc1Nc1nccc(-c2ccn(C(CO)c3ccc(Cl)c(F)c3)c(=O)c2)n1 (stereo not given) + COc1c(OCCCN2CCOCC2)ccc2c3n(c(=NC(=O)c4cnc(N)nc4)nc12)CCN3" discrete_label=1
compound="CC1(C)CCC(CN2CCN(c3ccc(C(=O)NS(=O)(=O)c4ccc(NCC5CCOCC5)c([N+](=O)[O-])c4)c(Oc4cnc5[nH]ccc5c4)c3)CC2)=C(c2ccc(Cl)cc2)C1 + CC(Nc1ccc2c(c1)OCCn1cc(N3C(=O)OCC3C(F)F)nc1-2)C(N)=O" discrete_label=-1
compound="CCCS(=O)(=O)Nc1ccc(F)c(C(=O)c2c[nH]c3ncc(-c4ccc(Cl)cc4)cc23)c1F + Cc1nc(NC(=O)N2CCCC2C(N)=O)sc1-c1ccnc(C(C)(C)C(F)(F)F)c1" discrete_label=-1
compound="Cn1nccc1Nc1nccc(-c2ccn(C(CO)c3ccc(Cl)c(F)c3)c(=O)c2)n1 (stereo not given) + CC(Nc1ccc2c(c1)OCCn1cc(N3C(=O)OCC3C(F)F)nc1-2)C(N)=O" discrete_label=-1
compound="CC(C)NCC(C(=O)N1CCN(c2ncnc3c2C(C)CC3O)CC1)c1ccc(Cl)cc1 (stereo not given) + CC(Nc1ncnc2nc[nH]c12)c1cc2cccc(Cl)c2c(=O)n1-c1ccccc1" discrete_label=1

----------
Listing of entries alongside the reported viability, T/C.
- System: 997726-040-R-J2-PDC tumor spheroids, viability
- method-description: Anticancer human tumor 997726-040-R-J2-PDC cell line growth inhibition [PI3K];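 further: spheroids exposed to compounds for seven days before readout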
- stated-conditions: second compound 0.0316 µM; first compound 3.16 µM; active compounds read low; spheroids with HUVEC and MSC
reported-metric: viability, T/C (%)

compound="CNC(=O)c1ccc(N2C(=S)N(c3ccc(C#N)c(C(F)(F)F)c3)C(=O)C2(C)C)cc1F + Cc1nc(NC(=O)N2CCCC2C(N)=O)sc1-c1ccnc(C(C)(C)C(F)(F)F)c1" result_unit=% observed_result=81.9
compound="C[C@@H](NC(=O)c1ncnc(N)c1Cl)c1ncc(C(=O)Nc2cc(C(F)(F)F)c(Cl)cn2)s1 + CC(Nc1ccc2c(c1)OCCn1cc(N3C(=O)OCC3C(F)F)nc1-2)C(N)=O" result_unit=% observed_result=57.9
compound="Cn1nccc1Nc1nccc(-c2ccn(C(CO)c3ccc(Cl)c(F)c3)c(=O)c2)n1 (stereo not given) + CC(Nc1ccc2c(c1)OCCn1cc(N3C(=O)OCC3C(F)F)nc1-2)C(N)=O" result_unit=% observed_result=43.9
compound="CCCS(=O)(=O)Nc1ccc(F)c(C(=O)c2c[nH]c3ncc(-c4ccc(Cl)cc4)cc23)c1F + CC(Nc1ncnc2nc[nH]c12)c1cc2cccc(Cl)c2c(=O)n1-c1ccccc1" result_unit=% observed_result=162
compound="CC1(C)CCC(CN2CCN(c3ccc(C(=O)NS(=O)(=O)c4ccc(NCC5CCOCC5)c([N+](=O)[O-])c4)c(Oc4cnc5[nH]ccc5c4)c3)CC2)=C(c2ccc(Cl)cc2)C1 + CC(Nc1ncnc2nc[nH]c12)c1cc2cccc(Cl)c2c(=O)n1-c1ccccc1" result_unit=% observed_result=104

----------
- Test system: 997726-040-R-J2-PDC tumor spheroids, viability
- method-description: Anticancer human tumor 997726-040-R-J2-PDC cell line growth inhibition [PI3K];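 further: spheroids exposed to compounds for seven days before readout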
- stated-conditions: second compound 0.316 µM; first compound 0.3 µM; active compounds read low; spheroids with HUVEC and MSC
reported-metric: viability, T/C (%)

molecule="Cn1cnc2c(F)c(Nc3ccc(Br)cc3Cl)c(C(=O)NOCCO)cc21 + COc1c(OCCCN2CCOCC2)ccc2c3n(c(=NC(=O)c4cnc(N)nc4)nc12)CCN3" assay_target="997726-040-R-J2-PDC tumor spheroids, viability" observed_result=2.68
molecule="Cn1cnc2c(F)c(Nc3ccc(Br)cc3Cl)c(C(=O)NOCCO)cc21 + Cc1nc(NC(=O)N2CCCC2C(N)=O)sc1-c1ccnc(C(C)(C)C(F)(F)F)c1" assay_target="997726-040-R-J2-PDC tumor spheroids, viability" observed_result=34.3
molecule="Cn1cnc2c(F)c(Nc3ccc(Br)cc3Cl)c(C(=O)NOCCO)cc21 + CC(Nc1ncnc2nc[nH]c12)c1cc2cccc(Cl)c2c(=O)n1-c1ccccc1" assay_target="997726-040-R-J2-PDC tumor spheroids, viability" observed_result=51.1
molecule="Cn1cnc2c(F)c(Nc3ccc(Br)cc3Cl)c(C(=O)NOCCO)cc21 + CC(Nc1ccc2c(c1)OCCn1cc(N3C(=O)OCC3C(F)F)nc1-2)C(N)=O" assay_target="997726-040-R-J2-PDC tumor spheroids, viability" observed_result=20.5

----------
- Tested on: 997726-040-R-J2-PDC tumor spheroids, viability
- method-description: Anticancer human tumor 997726-040-R-J2-PDC cell line growth inhibition [PI3K]; active = viability on the fitted dose curve at most 10% of control; inactive = the rest;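 further: spheroids exposed to compounds for seven days before readout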
- stated-conditions: second compound 1 µM; first compound 0.1 µM; spheroids with HUVEC and MSC
Outcome codes: active, inactive

compound="CC1(C)CCC(Nc2ncc(C(F)(F)F)c(-c3c[nH]c4c(P(C)(C)=O)c(C#N)ccc34)n2)CN1 (stereo unspecified) + Cc1nc(NC(=O)N2CCCC2C(N)=O)sc1-c1ccnc(C(C)(C)C(F)(F)F)c1" assay_target="997726-040-R-J2-PDC tumor spheroids, viability" discrete_label=inactive
compound="Cn1ncc(Cl)c1-c1cc(C(=O)NC(CN)Cc2cccc(F)c2)sc1Cl (stereo unspecified) + CC(Nc1ccc2c(c1)OCCn1cc(N3C(=O)OCC3C(F)F)nc1-2)C(N)=O" assay_target="997726-040-R-J2-PDC tumor spheroids, viability" discrete_label=inactive
compound="CC1(C)CCC(CN2CCN(c3ccc(C(=O)NS(=O)(=O)c4ccc(NCC5CCOCC5)c([N+](=O)[O-])c4)c(Oc4cnc5[nH]ccc5c4)c3)CC2)=C(c2ccc(Cl)cc2)C1 + COc1c(OCCCN2CCOCC2)ccc2c3n(c(=NC(=O)c4cnc(N)nc4)nc12)CCN3" assay_target="997726-040-R-J2-PDC tumor spheroids, viability" discrete_label=active
compound="Cn1ncnc1[C@H]1c2n[nH]c(=O)c3cc(F)cc(c23)N[C@@H]1c1ccc(F)cc1 + COc1c(OCCCN2CCOCC2)ccc2c3n(c(=NC(=O)c4cnc(N)nc4)nc12)CCN3" assay_target="997726-040-R-J2-PDC tumor spheroids, viability" discrete_label=active
compound="CC(=O)c1c(C)c2cnc(Nc3ccc(N4CCNCC4)cn3)nc2n(C2CCCC2)c1=O + CC(Nc1ncnc2nc[nH]c12)c1cc2cccc(Cl)c2c(=O)n1-c1ccccc1" assay_target="997726-040-R-J2-PDC tumor spheroids, viability" discrete_label=inactive
compound="CCN1CCN(Cc2ccc(Nc3ncc(F)c(-c4cc(F)c5nc(C)n(C(C)C)c5c4)n3)nc2)CC1 + CC(Nc1ccc2c(c1)OCCn1cc(N3C(=O)OCC3C(F)F)nc1-2)C(N)=O" assay_target="997726-040-R-J2-PDC tumor spheroids, viability" discrete_label=inactive
compound="CC(C)n1nc(-c2ccc3oc(N)nc3c2)c2c(N)ncnc21 + CC(Nc1ncnc2nc[nH]c12)c1cc2cccc(Cl)c2c(=O)n1-c1ccccc1" assay_target="997726-040-R-J2-PDC tumor spheroids, viability" discrete_label=inactive
compound="CNC(=O)c1ccc(N2C(=S)N(c3ccc(C#N)c(C(F)(F)F)c3)C(=O)C2(C)C)cc1F + CC(Nc1ccc2c(c1)OCCn1cc(N3C(=O)OCC3C(F)F)nc1-2)C(N)=O" assay_target="997726-040-R-J2-PDC tumor spheroids, viability" discrete_label=inactive
compound="CNC(=O)c1ccc(N2C(=S)N(c3ccc(C#N)c(C(F)(F)F)c3)C(=O)C2(C)C)cc1F + Cc1nc(NC(=O)N2CCCC2C(N)=O)sc1-c1ccnc(C(C)(C)C(F)(F)F)c1" assay_target="997726-040-R-J2-PDC tumor spheroids, viability" discrete_label=inactive
compound="CC(C)n1nc(-c2ccc3oc(N)nc3c2)c2c(N)ncnc21 + COc1c(OCCCN2CCOCC2)ccc2c3n(c(=NC(=O)c4cnc(N)nc4)nc12)CCN3" assay_target="997726-040-R-J2-PDC tumor spheroids, viability" discrete_label=active
compound="CCCS(=O)(=O)Nc1ccc(F)c(C(=O)c2c[nH]c3ncc(-c4ccc(Cl)cc4)cc23)c1F + COc1c(OCCCN2CCOCC2)ccc2c3n(c(=NC(=O)c4cnc(N)nc4)nc12)CCN3" assay_target="997726-040-R-J2-PDC tumor spheroids, viability" discrete_label=active
